# TARGET OF ASSAY: cloned rat 5-HT1B receptor (Rattus norvegicus)
# Construct: membrane fraction
# Sequence (P28564 whole entry): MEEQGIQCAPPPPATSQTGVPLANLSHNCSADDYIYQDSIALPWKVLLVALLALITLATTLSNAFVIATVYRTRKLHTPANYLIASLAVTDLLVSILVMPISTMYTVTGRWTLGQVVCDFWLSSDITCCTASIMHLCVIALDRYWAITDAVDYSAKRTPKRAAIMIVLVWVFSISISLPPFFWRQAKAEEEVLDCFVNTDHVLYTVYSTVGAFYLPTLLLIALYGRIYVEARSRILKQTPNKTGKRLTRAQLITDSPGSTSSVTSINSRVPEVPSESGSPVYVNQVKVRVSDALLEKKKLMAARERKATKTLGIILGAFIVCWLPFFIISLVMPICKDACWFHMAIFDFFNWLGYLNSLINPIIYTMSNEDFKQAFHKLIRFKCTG
# CONDITION SUMMARY: Cos-7 membranes; in the presence of 3 μM isoproterenol; read-out: Kd of [125I]iodocyanopindolol
READOUT NAME: pKd
One number for each entry, as −log10 of the molar value.

get_value(item= CC(C)(C)NCC(O)COc1cccc2[nH]c(C#N)c(I)c12 (stereo not shown) [[^125I]iodocyanopindolol] , readout=pKd) returns 9.80

====

# TARGET OF ASSAY: Cloned Canine 5-HT1D-1 (RDC4) (Canis lupus familiaris, UniProt P11614)
# Sequence (P11614 whole entry): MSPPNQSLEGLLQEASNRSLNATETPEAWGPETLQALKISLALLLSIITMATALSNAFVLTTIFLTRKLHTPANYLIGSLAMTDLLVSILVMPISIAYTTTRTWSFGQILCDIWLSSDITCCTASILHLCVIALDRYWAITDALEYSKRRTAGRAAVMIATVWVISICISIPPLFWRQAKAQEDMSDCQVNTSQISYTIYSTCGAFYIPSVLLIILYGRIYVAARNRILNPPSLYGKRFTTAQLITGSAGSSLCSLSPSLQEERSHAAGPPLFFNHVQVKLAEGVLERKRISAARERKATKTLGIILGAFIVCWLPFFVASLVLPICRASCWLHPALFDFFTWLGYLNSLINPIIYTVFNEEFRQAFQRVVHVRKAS
# MEASUREMENT PROTOCOL: [3H]5-HT binding to cloned canine 5-HT1D-1 (RDC4) in transfected cell membranes
READOUT NAME: Ki

Required: Ki, one value per compound below.
1. CN1C[C@H](C(=O)N[C@]2(C)O[C@@]3(O)[C@@H]4CCCN4C(=O)[C@H](Cc4ccccc4)N3C2=O)C=C2c3cccc4[nH]cc(c34)C[C@H]21
2. COc1cc(N)c(Cl)cc1C(=O)NC1CN2CCC1CC2 (stereo not drawn) [Zacopride]

[out]
1.9 nM
> 10000 nM

Could you tell me Ki for each of these compounds? They are listed below.
1. COC(=O)[C@H]1[C@H]2C[C@H]3c4[nH]c5ccccc5c4CCN3C[C@H]2CC[C@@H]1O
2. O=C(c1ccc(F)cc1)C1CCN(CCn2c(=O)[nH]c3ccccc3c2=O)CC1
3. CC(C)NCC(O)COc1cccc2[nH]ccc12 (stereo not drawn)

[out]
1. 5.3 nM
2. > 1000 nM
3. > 1000 nM

Item: `O=C(CCCN1CCC2(CC1)C(=O)NCN2c1ccccc1)c1ccc(F)cc1` | Ki: > 1000 nM

Every entry's value here was drawn from patent US6475746B1.
